assay: reduction of polyQ htt aggregates in cells – imaging, exon1htt(103Q)mCFP cells, high-content imaging, primary screen (AID 483); settings: exon1htt(103Q)mCFP cell line, aggregate imaging, at 2 µM; stronger effect = higher value;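 note: compound exposure lasted 3 days before fixation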
Reported inhibition of aggregation values for a set of compounds
experimental_endpoint: inhibition of aggregation (%)

1) CCOc1ccc(NC(=O)CC2NCCNC2=O)cc1 (centres undefined) ... -1.6
2) COc1ccc(C(=O)NCCSc2ccccn2)cc1 ... 3.3
3) COc1ccc(C)cc1NC(=O)CSc1nnnn1Cc1ccccc1 ... -27.3
4) NC(=O)COC(=O)CNC(=O)c1ccc(Cl)cc1 ... 4.1
5) COc1ccc(N2CCN(c3ccc(NC(=O)C4CCCCC4)cc3C#N)CC2)cc1 ... -30.8
6) Cc1nc2ccc(Br)cn2c1NC(C)(C)C ... -17.9
7) COc1cccc(C2C3=C(N=C4SCC(=O)N42)c2ccccc2CC3)c1OC (centres undefined) ... -10.8
8) CCOC(=O)N1CCN(C(=O)c2ccc3nc4ccsc4c(=O)n3c2)CC1 ... -30.4
9) O=S(=O)(c1ccc2c(c1)OCCO2)N1CCN(Cc2ccc3c(c2)OCO3)CC1 ... 0.7
10) Cc1cc(C)nc(N2CCC(C(=O)NC3CCCCCC3)CC2)n1 ... 25.2
11) COc1ccc2c(c1OC)C(=O)OC2CC(=O)c1ccc(O)cc1 (centres undefined) ... -3.9
12) COc1ccc(S(=O)(=O)N2CCCC(C(=O)N3CCCCCC3)C2)cc1 (centres undefined) ... -0.4
13) CCOc1ccc(-c2nc(C#N)c(NCc3ccc4c(c3)OCO4)o2)cc1 ... -13.1
14) O=C(Cn1nc(Cc2ccncc2)c2ccccc2c1=O)N1CCN(C(=O)c2ccco2)CC1 ... -29.3
15) O=C(O)CCC(=O)c1c[nH]c2ccccc12 ... 20
16) COc1ccc2c(c1OC)C(=O)N(c1ccc3c(c1)CCC3)C2=O ... -0.9
17) Cc1ccc(CCNC(=O)C2CCN(S(=O)(=O)c3ccc4c(c3)CCC(=O)N4)CC2)cc1 ... -19.2
18) O=C(c1ccccc1-c1nc(-c2ccccc2)no1)N1CCCC1 ... 0.7
19) O=C(Cn1nc(Cc2cccnc2)c2ccccc2c1=O)NCC1CCCO1 (centres undefined) ... 12.1
20) CC(C)(C)c1ccc(C(=O)Nc2cnccn2)cc1 ... 7.6
21) CC1(C)CC(=O)C(CC2=C(O)CC(C)(C)CC2=O)=C(O)C1 ... 15.8
22) CCOC(=O)c1cc2sc(C)cc2n1CC(=O)Nc1cccc(C)c1C ... 23.7
23) Cc1cnc(C(=O)Nc2nnc(C(C)C)s2)cn1 ... 10.8
24) O=C(c1ccc(Cl)c(F)c1F)N1CCCC1 ... -11.4
